System: Mus musculus
Procedure Text: Inhibition of arachidonic acid induced mouse ear edema at 30 ug/ear
Format: functional
Quantity Measured: Inhibition (%)
I only need the number, in %, no unit after it.

Compound: CCOc1ccc(OCC)c(C(=O)/C=C/c2ccc(O)c(O)c2)c1
Target Or Test System: Mus musculus
Quantity Measured: Inhibition
Recorded Result: -18

[in] Find the recorded Inhibition belonging to COc1ccc2c(c1)c(CC(=O)O)c(C)n2C(=O)c1ccc(Cl)cc1 [INDOMETHACIN] and report it.
[out] 4.8

[in] Next up: COc1ccc(OC(C)C)cc1C(=O)/C=C/c1ccc(O)c(O)c1
[out] 34

[in] Queued: Oc1c(Cc2ccccc2)ccc2ccccc12
[out] 67

[in] Please answer likewise for CC(C)c1ccc(O)c(C(=O)/C=C/c2ccc(O)c(O)c2)c1
[out] 16

[in] Same again, this time with COc1ccc(C)cc1C(=O)/C=C/c1ccc(O)c(O)c1
[out] 47

[in] Same read-out for CCOc1ccc(O)c(C(=O)/C=C/c2ccc(O)c(O)c2)c1 ?
[out] 42

[in] # iterate: O=C1CCN(c2ccccc2)N1 [PHENIDONE]
[out] 24.6

[in] // next record CCCCOc1ccc(O)c(C(=O)/C=C/c2ccc(O)c(O)c2)c1
[out] 33

----------
Target Or Test System: Polyunsaturated fatty acid 5-lipoxygenase (Rattus norvegicus, UniProt P12527)
Sequence (P12527 whole entry): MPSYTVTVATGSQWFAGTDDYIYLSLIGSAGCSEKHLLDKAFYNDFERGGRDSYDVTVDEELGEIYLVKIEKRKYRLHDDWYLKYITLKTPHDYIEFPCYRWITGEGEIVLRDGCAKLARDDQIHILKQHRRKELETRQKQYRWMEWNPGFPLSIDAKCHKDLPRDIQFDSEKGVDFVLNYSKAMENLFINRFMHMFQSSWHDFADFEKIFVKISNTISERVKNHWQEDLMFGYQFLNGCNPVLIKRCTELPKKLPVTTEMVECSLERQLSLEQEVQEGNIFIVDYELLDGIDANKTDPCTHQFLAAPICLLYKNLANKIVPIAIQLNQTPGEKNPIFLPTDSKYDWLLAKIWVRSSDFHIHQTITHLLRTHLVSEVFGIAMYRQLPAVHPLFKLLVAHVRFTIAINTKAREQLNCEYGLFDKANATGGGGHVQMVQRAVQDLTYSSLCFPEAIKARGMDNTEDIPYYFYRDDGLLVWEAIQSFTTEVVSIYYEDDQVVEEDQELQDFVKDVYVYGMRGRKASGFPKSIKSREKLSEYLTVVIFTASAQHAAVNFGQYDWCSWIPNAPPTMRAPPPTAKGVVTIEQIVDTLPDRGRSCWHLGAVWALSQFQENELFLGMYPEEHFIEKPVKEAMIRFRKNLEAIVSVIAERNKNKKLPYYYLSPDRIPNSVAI
Procedure Text: In vitro inhibition against 5-lipoxygenase in RBL-1 cells was determined
Format: cell-based
Quantity Measured: pIC50
In plain terms, pIC50 is the concentration in mol/L turned into minus its base-10 logarithm.

[in] # lookup: pIC50 of COc1cccc(C(=O)/C=C/c2ccc(O)c(O)c2)c1
[out] 8.19

[in] Same question, CCOc1ccc(O)c(C(=O)/C=C/c2ccc(O)c(O)c2)c1 this time
[out] 8.28

[in] Likewise for Cc1ccc(O)c(C(=O)/C=C/c2ccc(O)c(O)c2)c1 ?
[out] 7.41

[in] Cool, now O=C(/C=C/c1ccc(O)c(O)c1)c1ccccc1
[out] 7.37

[in] # repeat for O=C(/C=C/c1ccc(O)c(O)c1)c1ccc([N+](=O)[O-])cc1
[out] 7.64

[in] // next record Cc1ccc(C(=O)/C=C/c2ccc(O)c(O)c2)cc1
[out] 7.12
